Target protein (sequence): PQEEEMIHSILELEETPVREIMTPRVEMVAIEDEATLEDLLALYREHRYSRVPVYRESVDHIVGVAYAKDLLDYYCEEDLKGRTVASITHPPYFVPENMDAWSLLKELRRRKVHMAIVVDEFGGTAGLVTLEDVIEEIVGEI
observable: pKd
Please treat pKd as minus the base-10 logarithm of the molar concentration.

Problem: Return pKd (reported value) for this molecule: CNc1ccccc1C(=O)O[C@H]1[C@@H](O)[C@H](n2cnc3c(N)ncnc32)O[C@@H]1CO[P@@](=O)(O)O[P@](=O)(O)OP(=O)(O)O
Solution: 5.87

---

tgt: CorC (TpCorC) (Thermus parvatiensis)
Sequence (A0A109QFA5 207-348): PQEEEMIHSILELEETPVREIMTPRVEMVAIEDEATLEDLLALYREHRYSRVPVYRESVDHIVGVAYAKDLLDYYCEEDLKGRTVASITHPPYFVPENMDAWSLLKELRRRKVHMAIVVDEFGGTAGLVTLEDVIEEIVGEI
observable: pIC50
The scale used: pIC50 is minus the common logarithm of the concentration in molar units.

Problem: Answer with the recorded pIC50 of Nc1ncnc2c1ncn2[C@@H]1O[C@H](COP(=O)(O)OP(=O)(O)OP(=O)(O)O)[C@@H](O)[C@H]1O [ATP] only.
Solution: 6.24
